- EXPERIMENTAL TARGET: T1, human GLP-1 receptor (human, UniProt P43220 24-463)
- T1 construct: whole, on cells
- MEASUREMENT NOTES: competitive SPA binding, displacement of 125I-GLP-1(7-36)NH2 from BHK membranes with human GLP-1R, high HSA (2.0%)
Numbered stars: 1 amine (or outer) side, 2 acyl side, 3 side chain; on linkers, the order of the positions; unused ones are H or OH. Square brackets hold non-standard residues; d marks the D form. Side chains are listed from the residue outwards. Ends that are not written are not given here. * marks the point of attachment. C20 diacid = O=C(O)CCCCCCCCCCCCCCCCCCC(=O)*; εLys = N[C@@H](CCCCN[*:1])C(=O)[*:2]; AEEA = NCCOCCOCC(=O)O; Aib = CC(C)(N)C(=O)O
QUANTITY NAME: pIC50
Hey, just a heads up that pIC50 is the negative log base 10 of the concentration in molar.

Fill blank: measured pIC50 of the binder H[Aib]EGTFTSDVSK([AEEA-AEEA-AEEA-AEEA-AEEA-εLys-εLys-C20 diacid])YLEK([AEEA-AEEA-AEEA-AEEA-AEEA-εLys-εLys-C20 diacid])QAAREFIK([AEEA-AEEA-AEEA-AEEA-AEEA-εLys-εLys-C20 diacid])WLVRGRG (Full chemical name printed at h-0080) is ____.
6.37
